SYSTEM UNDER TEST: PCSK9 (Homo sapiens, UniProt Q8NBP7)
Construct: biotin (biotinylated); purchased
Sequence (Q8NBP7 153-692): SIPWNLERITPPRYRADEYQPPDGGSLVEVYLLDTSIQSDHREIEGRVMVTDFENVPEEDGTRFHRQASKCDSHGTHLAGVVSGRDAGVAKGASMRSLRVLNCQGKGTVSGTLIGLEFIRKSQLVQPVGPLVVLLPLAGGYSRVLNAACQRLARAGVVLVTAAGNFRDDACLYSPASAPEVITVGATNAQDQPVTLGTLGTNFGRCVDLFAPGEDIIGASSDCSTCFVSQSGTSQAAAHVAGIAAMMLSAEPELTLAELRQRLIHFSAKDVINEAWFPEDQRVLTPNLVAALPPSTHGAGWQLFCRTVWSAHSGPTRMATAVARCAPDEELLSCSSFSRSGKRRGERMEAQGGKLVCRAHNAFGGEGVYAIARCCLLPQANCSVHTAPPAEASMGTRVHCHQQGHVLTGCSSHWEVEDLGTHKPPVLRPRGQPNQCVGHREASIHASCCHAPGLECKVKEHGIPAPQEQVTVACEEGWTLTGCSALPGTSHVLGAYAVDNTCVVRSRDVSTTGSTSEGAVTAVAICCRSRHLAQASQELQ
ASSAY COMMENT: PCSK9 Alexa FRET Plus TR-FRET assay
Type: binding
pKi: −log10 of the molar value.
pKi values, listed per item

COc1ccc(C[C@@H]2NC(=O)[C@H]([C@@H](C)O)NC(=O)[C@@H]3[C@@H]4CCN3C(=O)[C@@H]3Cc5cn(c6ccc(F)cc56)CCCCCCN(Cc5ccc(cc5)CCNC(=O)[C@]5(C)CCCN5C2=O)C(=O)CCC(=O)N[C@@H](C)C(=O)N[C@H](CNC(=O)CCOCCOCC[N+](C)(C)CCNC(=O)COCCOCCNC(=O)COCCOCCNC(=O)C[C@H](NC(=O)CCCCCCCCCCCCCCCCC(=O)O)C(=O)O)C(=O)N[C@@H](Cc2cccc(c2)CNC(=O)CO4)C(=O)N3)cc1; > 11.22

Now take the following compound into account.
In: Return reported pKi; argument: COc1ccc(C[C@@H]2NC(=O)[C@H]([C@@H](C)O)NC(=O)[C@@H]3[C@@H]4CCN3C(=O)[C@@H]3Cc5cn(c6ccc(F)cc56)CCCCCCN(Cc5ccc(cc5)CCNC(=O)[C@]5(C)CCCN5C2=O)C(=O)CCC(=O)N[C@@H](C)C(=O)N[C@H](CNC(=O)CCC[N+](C)(C)CCNC(=O)COCCOCCNC(=O)CC[C@H](NC(=O)CC[C@H](NC(=O)CCCCCCCCCCCCCCCCC(=O)O)C(=O)O)C(=O)O)C(=O)N[C@@H](Cc2cccc(c2)CNC(=O)CO4)C(=O)N3)cc1
Out: > 11.22

---

SYSTEM UNDER TEST: PCSK9 (Homo sapiens)
Construct: biotin (biotinylated); purchased
ASSAY COMMENT: PCSK9 Alexa FRET Standard TR-FRET assay
Type: binding
ASSAY SETUP: Ki calculated from IC50 and KD of AF cyclic peptide Reagent A; 0.5 nM PCSK9, 20 nM AF cyclic peptide; read-out: Alexa FRET Stdt TR-FRET
Protocol: A solution containing 1 nM biotinylated PCSK9+2.5 nM Lance Streptavidin Europium (Strep-Eu) is made in 50 mM HEPES pH 7.4, 0.15 M NaCl, 5 mM CaCl2, 0.01% BSA, and 0.01% Surfactant P20. […] The reaction is incubated at room temperature for at least two hours prior to fluorescence measurements using an Envision Multilabel Reader. IC50 values are determined by fitting data to a sigmoidal dose-response curve using nonlinear regression. Ki is then calculated from the Ic50 and the KD of AF cyclic peptide. […]
pKi: −log10 of the molar value.
MEASURED ATTRIBUTE: pKi

In: Return reported pKi; argument: COc1ccc(C[C@@H]2NC(=O)[C@H]([C@@H](C)O)NC(=O)[C@@H]3[C@@H]4CCN3C(=O)[C@@H]3Cc5cn(c6ccc(F)cc56)CCCCCCN(Cc5ccc(cc5)CCNC(=O)[C@]5(C)CCCN5C2=O)C(=O)CCC(=O)N[C@@H](C)C(=O)N[C@H](CNC(=O)CCCCC[N+](C)(C)CCNC(=O)CCCCC[N+](C)(C)CCNC(=O)COCCOCCNC(=O)COCCOCCNC(=O)CC[C@H](NC(=O)CCCCCCCCCCCCCCCCC(=O)O)C(=O)O)C(=O)N[C@@H](Cc2cccc(c2)CNC(=O)CO4)C(=O)N3)cc1
Out: > 8.90

---

Ki values, listed per item
SYSTEM UNDER TEST: PCSK9 (Homo sapiens)
Construct: biotin (biotinylated); purchased
ASSAY COMMENT: PCSK9 Alexa FRET Plus TR-FRET assay
Format: binding
ASSAY SETUP: Ki calculated from IC50 and KD of AF cyclic peptide Reagent B; 0.5 nM PCSK9, 960 nM AF cyclic peptide; read-out: Alexa FRET Plus TR-FRET
Kindly provide the numeric value in nM only, without the unit symbol.

In: Return reported Ki; argument: CCCCCCCCCCCCCCCC(=O)NCC[N+](C)(C)CCOCCOCCC(=O)NC[C@H]1NC(=O)[C@H](C)NC(=O)CCC(=O)N2CCCCCCn3cc(c4cc(F)ccc43)C[C@@H]3NC(=O)[C@H](Cc4cccc(c4)CNC(=O)CO[C@H]4CCN(C3=O)[C@@H]4C(=O)N[C@@H]([C@@H](C)O)C(=O)N[C@@H](Cc3ccc(OC)cc3)C(=O)N3CCC[C@@]3(C)C(=O)NCCc3ccc(cc3)C2)NC1=O
Out: 0.044

In: Return reported Ki; argument: CCCCCC/C=C\CCCCCCCC(=O)N[C@@H](CCC(=O)NCCOCCOCC(=O)NCCOCCOCC(=O)NCC[N+](C)(C)CCCCCC(=O)NC[C@H]1NC(=O)[C@H](C)NC(=O)CCC(=O)N2CCCCCCn3cc(c4cc(F)ccc43)C[C@@H]3NC(=O)[C@H](Cc4cccc(c4)CNC(=O)CO[C@H]4CCN(C3=O)[C@@H]4C(=O)N[C@@H]([C@@H](C)O)C(=O)N[C@@H](Cc3ccc(OC)cc3)C(=O)N3CCC[C@@]3(C)C(=O)NCCc3ccc(cc3)C2)NC1=O)C(=O)O
Out: 0.01

---

SYSTEM UNDER TEST: PCSK9 (Homo sapiens)
Construct: biotin (biotinylated); purchased
ASSAY COMMENT: PCSK9 Alexa FRET Ultra TR-FRET assay
Assay type: binding
ASSAY SETUP: Ki Ultra, calculated from IC50 and KD of AF cyclic peptide; 0.5 nM PCSK9, 960 nM AF cyclic peptide; read-out: Alexa FRET Ultra TR-FRET
MEASURED ATTRIBUTE: pKi
Please note pKi is a logarithmic value: minus log10 of concentration in mol/L. Answer with that number alone.

In: Give PCSK9 (Homo sapiens) pKi for COc1ccc(C[C@@H]2NC(=O)[C@H]([C@@H](C)O)NC(=O)[C@@H]3[C@@H]4CCN3C(=O)[C@@H]3Cc5cn(c6ccc(F)cc56)CCCCCCN(Cc5ccc(cc5)CCNC(=O)[C@]5(C)CCCN5C2=O)C(=O)CCC(=O)N[C@@H](C)C(=O)N[C@H](CNC(=O)COCCOCC[N+](C)(C)CCOCCNC(=O)COCCOCCNC(=O)COCCOCCNC(=O)CC[C@H](NC(=O)CC[C@H](NC(=O)CCCCCCCCCCCCCCC(=O)O)C(=O)O)C(=O)O)C(=O)N[C@@H](Cc2cccc(c2)CNC(=O)CO4)C(=O)N3)cc1
Out: 11.52

In: Give PCSK9 (Homo sapiens) pKi for COc1ccc(C[C@@H]2NC(=O)[C@H]([C@@H](C)O)NC(=O)[C@@H]3[C@@H]4CCN3C(=O)[C@@H]3Cc5cn(c6ccc(F)cc56)CCCCCCN(Cc5ccc(cc5)CCNC(=O)[C@]5(C)CCCN5C2=O)C(=O)CCC(=O)N[C@@H](C)C(=O)N[C@H](CNC(=O)[C@@H](CCCC[N+](C)(C)C)NC(=O)COCCOCCNC(=O)COCCOCCNC(=O)CC[C@H](NC(=O)CC[C@H](NC(=O)CCCCCCCCCCCCCCCCC(=O)O)C(=O)O)C(=O)O)C(=O)N[C@@H](Cc2cccc(c2)CNC(=O)CO4)C(=O)N3)cc1
Out: 11.00

---

SYSTEM UNDER TEST: PCSK9 (Homo sapiens, UniProt Q8NBP7)
Construct: biotin (biotinylated); purchased
ASSAY COMMENT: PCSK9 Alexa FRET Plus TR-FRET assay
Assay type: binding
ASSAY SETUP: Ki calculated from IC50 and KD of AF cyclic peptide Reagent B; 0.5 nM PCSK9, 960 nM AF cyclic peptide; read-out: Alexa FRET Plus TR-FRET
Ki values, listed per item
Kindly provide the numeric value in nM only, without the unit symbol.

COc1ccc(C[C@@H]2NC(=O)[C@H]([C@@H](C)O)NC(=O)[C@@H]3[C@@H]4CCN3C(=O)[C@@H]3Cc5cn(c6ccc(F)cc56)CCCCCCN(Cc5ccc(cc5)CCNC(=O)[C@]5(C)CCCN5C2=O)C(=O)CCC(=O)N[C@@H](CNC(=O)COCCOCC[N+](C)(C)CCOCCNC(=O)COCCOCCNC(=O)COCCOCCNC(=O)CC[C@H](NC(=O)CC[C@H](NC(=O)CCCCCCCCCCCCCCC(=O)O)C(=O)O)C(=O)O)C(=O)N[C@H](C)C(=O)N[C@@H](Cc2cccc(c2)CNC(=O)CO4)C(=O)N3)cc1; 0.008

Now take the following compound into account.
In: Return reported Ki; argument: COc1ccc(C[C@@H]2NC(=O)[C@H]([C@@H](C)O)NC(=O)[C@@H]3[C@@H]4CCN3C(=O)[C@@H]3Cc5cn(c6ccc(F)cc56)CCCCCCN(Cc5ccc(cc5)CCNC(=O)[C@]5(C)CCCN5C2=O)C(=O)CCC(=O)N[C@@H](C)C(=O)N[C@H](CNC(=O)COCCOCCNC(=O)COCCOCCNC(=O)CC[C@H](NC(=O)CCCCCCCCCCCCCCCCC(=O)O)C(=O)O)C(=O)N[C@@H](Cc2cccc(c2)CNC(=O)CO4)C(=O)N3)cc1
Out: 0.023
